# Target: SARS-CoV-2 NSP3 macrodomain (Mac1) (Severe acute respiratory syndrome coronavirus 2, UniProt P0DTD1)
# Assay Notes: biochemical
# Format: binding
# Conditions: SARS CoV-2 macrodomain HTRF assay, dose-response; read-out: IC50
Recorded Metric: pIC50
Interpret pIC50 as the negative base-10 log of the concentration measured in mol/L.

Some molecules with known pIC50 results, for comparison:
• O=C(O)C(F)(F)F.OCC1(Nc2ncnc3[nH]ccc23)CCCC1 = 4.31
• O=C(O)C(F)(F)F.OC[C@H](Cc1ccc(O)cc1)Nc1ncnc2[nH]ccc12 = 3.14
• O=C(O)C(F)(F)F.OCC1(Nc2ncnc3[nH]ccc23)CCC1 = 4.41
• Cc1c[nH]c2ncnc(NCC3(O)CCC3)c12 = 4.82

Prompt: Field request: pIC50 | item: CCC(C)(CO)Nc1ncnc2[nH]ccc12 (stereo not drawn)
Completion: 4.44

Prompt: Next molecule up: OCC(Nc1ncnc2[nH]ccc12)C1CC1 (stereo not drawn)
Completion: 4.32

Prompt: Next molecule up: `CCC(CC)(CO)Nc1ncnc2[nH]ccc12`
Completion: 4.40

Prompt: Next molecule up: `Cc1c[nH]c2ncnc(NCC3(O)CCCC3)c12`
Completion: 4.72

Prompt: Next molecule up: `CC(C)(CO)Nc1ncnc2[nH]ccc12`
Completion: 4.49
